Data provenance: patent US20240309360A1

Reported logFC medium GFP values follow for various substances
System: EGFP reporter (7×TetO array, basal CMV promoter) in HEK293T reporter cell line
Protocol text: TAD-seq pooled activation screen of 60-aa fragments fused to PYL1
Assay type: cell-based, human
Assay setup: log 2 fold change of counts, sorted medium GFP cells (top 2-5%) vs unsorted cells; 100 μM ABA 48 hours

Briefly, logFC medium GFP measured for HSF1-25: 60-aa TAD-seq fragment of HSF1 (AQPLFLLDPGSVDTGSNDLPVLFELGEGSYFSEGDGFAEDPTISLLTGSEPPKAKDPTVS; listed as Homo sapiens) : 1.153

Continue with the next substance.
Briefly, logFC medium GFP measured for SS18L2-2: 60-aa TAD-seq fragment of SS18L2 (QETIQRLLEENDQLIRCIVEYQNKGRGNECVQYQHVLHRNLIYLATIADASPTSTSKAME; listed as Homo sapiens) : 1.166

* * *

Test system: EGFP reporter (7×TetO array, basal CMV promoter) in HEK293T reporter cell line
Protocol text: TAD-seq pooled activation screen of 60-aa fragments fused to PYL1
Format: cell-based, human
Assay setup: log 2 fold change of counts, sorted medium GFP cells (top 2-5%) vs unsorted cells; 100 μM ABA 48 hours
Measurement name: logFC medium GFP

Briefly, logFC medium GFP measured for CITED2-11: 60-aa TAD-seq fragment of CITED2 (MPASVAHVPAAMLPPNVIDTDFIDEEVLMSLVIEMGLDRIKELPELWLGQNEFDFMTDFV; listed as Homo sapiens) : 0.9491

Briefly, logFC medium GFP measured for HOXA2-6: 60-aa TAD-seq fragment of HOXA2 (KKAAKKTALLPAAAAAATAAATGPACLSHKESLEIADGSGGGSRRLRTAYTNTQLLELEK; listed as Homo sapiens) : 1.738

Next:
Briefly, logFC medium GFP measured for ATF6-2: 60-aa TAD-seq fragment of ATF6 (HRLDEDWDSALFAELGYFTDTDELQLEAANETYENNFDNLDFDLDLVPWESDIWDINNQI; listed as Homo sapiens) : 1.477

* * *

Test system: EGFP reporter (7×TetO array, basal CMV promoter) in HEK293T reporter cell line
Protocol text: TAD-seq pooled activation screen of 60-aa fragments fused to PYL1
Format: cell-based, human
Assay setup: log 2 fold change of counts, sorted high GFP cells (top 1%) vs unsorted cells; 100 μM ABA 48 hours
Measurement name: logFC high GFP
// no unit, no text: just the number

Briefly, logFC high GFP measured for BRD8-24: 60-aa TAD-seq fragment of BRD8 (IDGKEELDLAEKMDIAVSYTGEELDFETVGDIIAIIEDKVDDHPEVLDVAAVEAALSFCE; listed as Homo sapiens) : 1.593

Briefly, logFC high GFP measured for FAM22F-22: 60-aa TAD-seq fragment of FAM22F (EKGKVEQPQEEDGITSDPGLLSYIDKLCSQEDFVTKVEAVIHPRFLEELLSPDPQMDFLA; listed as Homo sapiens) : 4.76

Briefly, logFC high GFP measured for KLF7-1: 60-aa TAD-seq fragment of KLF7 (MDVLASYSIFQELQLVHDTGYFSALPSLEETWQQTCLELERYLQTEPRRISETFGEDLDC; listed as Homo sapiens) : 5.998

Next:
Briefly, logFC high GFP measured for RELB-3: 60-aa TAD-seq fragment of RELB (SSLSLAVSRSTDELEIIDEYIKENGFGLDGGQPGPGEGLPRLVSRGAASLSTVTLGPVAP; listed as Homo sapiens) : 1.768

Briefly, logFC high GFP measured for CITED1-7: 60-aa TAD-seq fragment of CITED1 (LQNWDFGAQAGGAESLSPSAGAQSPAIIDSDPVDEEVLMSLVVELGLDRANELPELWLGQ; listed as Homo sapiens) : 4.314

* * *

Test system: EGFP reporter (7×TetO array, basal CMV promoter) in HEK293T reporter cell line
Protocol text: TAD-seq pooled activation screen of 60-aa fragments fused to PYL1
Format: cell-based, human
Assay setup: log 2 fold change of counts, sorted high GFP cells (top 1%) vs unsorted cells; 100 μM ABA 48 hours
Classify as follows. Reported logFC high GFP greater than or equal to 0.8: class 1. Reported logFC high GFP below: class 0.

Worked set:
**Q:** Confirm if logFC high GFP reported for the substance SERTAD1-10: 60-aa TAD-seq fragment of SERTAD1 (IDTSMYDNELWAPASEGLKPGPEDGPGKEEAPELDEAELDYLMDVLVGTQALERPPGPGR; listed as Homo sapiens) is 0.8 or above.
**A:** class 0

**Q:** Confirm if logFC high GFP reported for the substance ATF6B-1: 60-aa TAD-seq fragment of ATF6B (MAELMLLSEIADPTRFFTDNLLSPEDWGLQNSTLYSGLDEVAEEQTQLFRCPEQDVPFDG; listed as Homo sapiens) is 0.8 or above.
**A:** class 1

**Q:** Confirm if logFC high GFP reported for the substance SPDYE4-4: 60-aa TAD-seq fragment of SPDYE4 (SEEELEEELELERAPEPEDTWVVETLCGLKMKLKRKRASSVLPEHHEAFNRLLGDPVVQK; listed as Homo sapiens) is 0.8 or above.
**A:** class 1

**Q:** Confirm if logFC high GFP reported for the substance HSF1-21: 60-aa TAD-seq fragment of HSF1 (MLSSHGFSVDTSALLDLFSPSVTVPDMSLPDLDSSLASIQELLSPQEPPRPPEAENSSPD; listed as Homo sapiens) is 0.8 or above.
**A:** class 0

**Q:** Confirm if logFC high GFP reported for the substance HSF1-20: 60-aa TAD-seq fragment of HSF1 (KNELSDHLDAMDSNLDNLQTMLSSHGFSVDTSALLDLFSPSVTVPDMSLPDLDSSLASIQ; listed as Homo sapiens) is 0.8 or above.
**A:** class 0

**Q:** Confirm if logFC high GFP reported for the substance C3orf62-12: 60-aa TAD-seq fragment of C3orf62 (QDSPFKEEAWALLMDKSPQKATDADPGSLKQAFDDHNIVETVLDLEEDYNVMTSFKYQIE; listed as Homo sapiens) [Fragment C3orf62-12] is 0.8 or above.
**A:** class 1

Next:
**Q:** Confirm if logFC high GFP reported for the substance MYCL1-1: 60-aa TAD-seq fragment of MYCL1 (MDYDSYQHYFYDYDCGEDFYRSTAPSEDIWKKFELVPSPPTSPPWGLGPGAGDPAPGIGP; listed as Homo sapiens) is 0.8 or above.
**A:** class 1

**Q:** Confirm if logFC high GFP reported for the substance ATXN7L3-2: 60-aa TAD-seq fragment of ATXN7L3 (QEIYADLVEDSCLGFCFEVHRAVKCGYFFLDDTDPDSMKDFEIVDQPGLDIFGQVFNQWK; listed as Homo sapiens) is 0.8 or above.
**A:** class 0

**Q:** Confirm if logFC high GFP reported for the substance DDIT3-1: 60-aa TAD-seq fragment of DDIT3 (MAAESLPFSFGTLSSWELEAWYEDLQEVLSSDENGGTYVSPPGNEEEESKIFTTLDPASL; listed as Homo sapiens) is 0.8 or above.
**A:** class 1

**Q:** Confirm if logFC high GFP reported for the substance ELF4-2: 60-aa TAD-seq fragment of ELF4 (DDIHQLEDPSVFPAVIVEQVPYPDLLHLYSGLELDDVHNGIITDGTLCMTQDQILEGSFL; listed as Homo sapiens) is 0.8 or above.
**A:** class 1

* * *

System: EGFP reporter (7×TetO array, basal CMV promoter) in HEK293T reporter cell line
Protocol text: TAD-seq pooled activation screen of 60-aa fragments fused to PYL1
Assay type: cell-based, human
Assay setup: log 2 fold change of counts, sorted high GFP cells (top 1%) vs unsorted cells; 100 μM ABA 48 hours
Classify as follows. Reported logFC high GFP greater than or equal to 2: label 1. Reported logFC high GFP below: label 0.

Worked set:
**Q:** Confirm if logFC high GFP reported for the substance RELB-2: 60-aa TAD-seq fragment of RELB (RRVARPPAAPELGALGSPDLSSLSLAVSRSTDELEIIDEYIKENGFGLDGGQPGPGEGLP; listed as Homo sapiens) is 2 or above.
**A:** label 1

**Q:** Confirm if logFC high GFP reported for the substance CITED2-11: 60-aa TAD-seq fragment of CITED2 (MPASVAHVPAAMLPPNVIDTDFIDEEVLMSLVIEMGLDRIKELPELWLGQNEFDFMTDFV; listed as Homo sapiens) is 2 or above.
**A:** label 1

**Q:** Confirm if logFC high GFP reported for the substance ATXN7L3-1: 60-aa TAD-seq fragment of ATXN7L3 (MKMEEMSLSGLDNSKLEAIAQEIYADLVEDSCLGFCFEVHRAVKCGYFFLDDTDPDSMKD; listed as Homo sapiens) is 2 or above.
**A:** label 0

**Q:** Confirm if logFC high GFP reported for the substance ATMIN-24: 60-aa TAD-seq fragment of ATMIN (NPGPDTQLPSGPAQNPGIDFDIEEFFSASNIQTQTEESELSTMTTEPVLESLDIETQTDF; listed as Homo sapiens) is 2 or above.
**A:** label 0

**Q:** Confirm if logFC high GFP reported for the substance CITED2-12: 60-aa TAD-seq fragment of CITED2 (AMLPPNVIDTDFIDEEVLMSLVIEMGLDRIKELPELWLGQNEFDFMTDFVCKQQPSRVSC; listed as Homo sapiens) is 2 or above.
**A:** label 1

Next:
**Q:** Confirm if logFC high GFP reported for the substance SPDYE4-3: 60-aa TAD-seq fragment of SPDYE4; SPDYE4 activation domain (DPSPQPQSLGLKRKSEWSDESEEELEEELELERAPEPEDTWVVETLCGLKMKLKRKRASS; listed as Homo sapiens) is 2 or above.
**A:** label 1

**Q:** Confirm if logFC high GFP reported for the substance ATF6-1: 60-aa TAD-seq fragment of ATF6 (MGEPAGVAGTMESPFSPGLFHRLDEDWDSALFAELGYFTDTDELQLEAANETYENNFDNL; listed as Homo sapiens) is 2 or above.
**A:** label 1
